# system_name: GST-Rok-C97-191 (Bacillus subtilis subsp. subtilis str. …, UniProt O34857 97-191)
# Sequence: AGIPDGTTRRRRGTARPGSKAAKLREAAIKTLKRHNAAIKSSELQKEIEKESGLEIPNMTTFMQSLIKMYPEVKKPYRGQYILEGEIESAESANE
# method_notes: protein binding microarray; high values mean tight binding
# protocol_conditions: protein: recombinant; tags: GST (pTH5325, pDEST15-Magic modified); dsDNA, one strand shown
Over roughly 33,000 sequences, “e-score” has its median near -0.038; the highest 2% begin near 0.33. Many of the other results were omitted from the sample, so the highest values are more common in it than they were.
Think of -0.02 E-score as a floor: if binding signal stands on it or above, it is Yes; beneath it, No.

Previously resolved entries follow.
sequence_record	category_label
ATGAATTC	Yes
ATACCATC	Yes

## Input Test whether the sequence ATCTTAGG records binding signal of -0.02 E-score or higher.
## Output Yes

## Input Let us now turn to CATACAAA
## Output Yes

## Input Follow-up item: ATGGACGC
## Output No

## Input Request: ATACTAGA
## Output Yes

====

# system_name: GST-Rok-C97-191 (Bacillus subtilis subsp. subtilis str. …, UniProt O34857 97-191)
# Sequence: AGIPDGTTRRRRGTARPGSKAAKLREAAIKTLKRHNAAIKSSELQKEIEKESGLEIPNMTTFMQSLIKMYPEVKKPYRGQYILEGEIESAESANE
# method_notes: protein binding microarray; Rok is a gene silencer of Bacillus subtilis; high values mean tight binding
# protocol_conditions: protein: recombinant; tags: GST (pTH5325, pDEST15-Magic modified); dsDNA, one strand shown
The full ranking holds about 33,000 sequences; the median of “e-score” is about -0.038, and the highest 2% start at about 0.33. The sample holds the highest values, similar sequences and a random draw of the others, so the mix is not that of the screen.
So basically: binding signal at 0.07 E-score or higher? That is Yes. Lower than 0.07 E-score? That is No.

Example entries and their recorded answers appear below.
sequence_record	category_label
ACATACGC	No
ATATAAAG	Yes
GATTTGCC	No
AATCTAAC	Yes
GAATACTA	Yes

## Input Test whether the sequence AAGTAAAG records binding signal of 0.07 E-score or higher.
## Output Yes

## Input Also, CAGGGCCA please.
## Output No

## Input Then what about the sequence GAAAACTC ?
## Output No

## Input GAAAACCA ?
## Output No
